The measurements presented in this section are drawn from patent US12649751B2.

- testSystem: HPK1 (Homo sapiens, UniProt Q92918)
- Sequence (Q92918 whole entry, species assumed): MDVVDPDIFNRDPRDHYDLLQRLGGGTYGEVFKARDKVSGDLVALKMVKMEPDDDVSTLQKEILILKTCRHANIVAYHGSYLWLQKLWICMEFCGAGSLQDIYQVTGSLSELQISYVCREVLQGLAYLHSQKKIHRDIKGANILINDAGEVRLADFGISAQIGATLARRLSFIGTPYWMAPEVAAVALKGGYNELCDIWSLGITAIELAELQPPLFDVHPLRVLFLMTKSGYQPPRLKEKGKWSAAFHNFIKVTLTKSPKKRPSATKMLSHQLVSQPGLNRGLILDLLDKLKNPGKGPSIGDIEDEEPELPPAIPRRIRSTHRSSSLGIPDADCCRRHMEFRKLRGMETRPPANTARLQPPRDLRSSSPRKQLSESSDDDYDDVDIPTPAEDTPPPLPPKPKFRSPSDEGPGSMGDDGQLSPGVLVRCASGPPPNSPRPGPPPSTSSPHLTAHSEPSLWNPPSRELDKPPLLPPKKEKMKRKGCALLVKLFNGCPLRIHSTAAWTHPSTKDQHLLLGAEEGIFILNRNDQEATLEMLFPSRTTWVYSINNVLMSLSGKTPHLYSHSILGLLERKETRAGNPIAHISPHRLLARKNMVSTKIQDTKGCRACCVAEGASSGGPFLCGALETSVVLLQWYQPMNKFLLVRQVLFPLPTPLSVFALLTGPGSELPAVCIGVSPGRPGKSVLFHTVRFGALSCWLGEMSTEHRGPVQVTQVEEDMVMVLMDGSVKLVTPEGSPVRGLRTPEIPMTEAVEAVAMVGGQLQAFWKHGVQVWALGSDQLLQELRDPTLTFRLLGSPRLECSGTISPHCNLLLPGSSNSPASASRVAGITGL
- assayText: HPK1 Biochemical Assay (ADP-Glo luminescence; low ATP 10 μM or high ATP 200 μM)
- measurementConditions: HPK1 ADP-Glo assay, low ATP (10 μM ATP, 2 nM HPK1); read-out: Biochemical Potency (low ATP)
Give IC50 for every item shown.

Examples from the recorded data:
compound=Cc1cccnc1-c1nc2cc(Nc3ccc4c(n3)[C@](C)(N)CC4)ncc2s1 assayresult="< 100 nM"
compound=c1cc(Nc2cc3nc(-c4ncco4)sc3cn2)nc(N2C[C@@H]3C[C@H]2CN3)n1 assayresult="< 100 nM"
compound=CN1C[C@@H]2C[C@H]1CN2c1nccc(Nc2cc3nc(-c4ccnc(N5CCC[C@@H](O)C5)c4)sc3cn2)n1 assayresult="< 100 nM"

Parameter requested: IC50. Apply to each item below.
1. CN1C[C@@H]2C[C@H]1CN2c1nccc(Nc2cc3nc(-c4cccc(S(=O)(=O)N(C)C)c4)sc3cn2)n1
2. CN1C[C@@H]2C[C@H]1CN2c1nc(Nc2cc3nc(-c4ccnc(C(C)(C)O)c4)sc3cn2)cc(C2CCOCC2)n1
3. Fc1cccc(F)c1-c1nc2cc(Nc3cc4c(cn3)CCNC4)ncc2s1
4. CN1C[C@@H]2C[C@H]1CN2c1nccc(Nc2cc3nc(-c4ccnc(N5CC[C@H](O)C5)c4)sc3cn2)n1
5. Cc1cc(Nc2cc3nc(-c4ncccc4C)sc3cn2)nc(N2C[C@@H]3C[C@H]2CN3)n1
6. Cc1cccnc1-c1nc2cc(Nc3ccc4c(n3)[C@H](N)CCC4)ncc2s1

**A:**
1: < 100 nM; 2: < 100 nM; 3: 100 to 1000 nM; 4: < 100 nM; 5: < 100 nM; 6: < 100 nM

Parameter requested: IC50. Apply to each item below.
1. CN1C[C@@H]2C[C@H]1CN2c1nccc(Nc2cc3nc(N4CCc5ccncc5C4)sc3cn2)n1
2. CS(=O)(=O)Nc1cccc(-c2nc3cc(Nc4cccc(N5C[C@@H]6C[C@H]5CN6)n4)ncc3s2)c1

**A:**
["100 to 1000 nM", "< 100 nM"]

Parameter requested: IC50. Apply to each item below.
1. Cc1cccnc1-c1nc2cc(Nc3ccc4c(n3)[C@](C)(N)CCC4)ncc2s1
2. CNS(=O)(=O)c1cccc(-c2nc3cc(Nc4cncc(N5C[C@@H]6C[C@H]5CN6C)n4)ncc3s2)c1
3. Cc1cccnc1-c1nc2cc(Nc3ccc(C4CCOCC4)c(N4C[C@@H]5C[C@H]4CN5)n3)ncc2s1
4. CN1C[C@@H]2C[C@H]1CN2c1nccc(Nc2cc3nc(-c4ccnc(N5CCOCC5)c4)sc3cn2)n1
5. c1cnn(-c2nc3cc(Nc4cncc(N5C[C@@H]6C[C@H]5CN6)n4)ncc3s2)c1
6. CN1C[C@@H]2C[C@H]1CN2c1nccc(Nc2cc3nc(-c4cccc(NS(C)(=O)=O)c4)sc3cn2)n1
7. c1cnn(-c2nc3cc(Nc4ccnc(N5C[C@@H]6C[C@H]5CN6)n4)ncc3s2)c1

**A:**
1: 1000 to 5000 nM; 2: < 100 nM; 3: < 100 nM; 4: < 100 nM; 5: < 100 nM; 6: < 100 nM; 7: < 100 nM

Parameter requested: IC50. Apply to each item below.
1. Cc1cccnc1-c1nc2cc(Nc3ccc4c(n3)[C@@](C)(N)CCC4)ncc2s1
2. Cc1cccnc1-c1nc2cc(Nc3ccc4c(n3)[C@@](C)(N)CC4)ncc2s1
3. Cc1ccnn1-c1nc2cc(Nc3ccc4c(n3)C(C)(N)CC4)ncc2s1 (centres unmarked)
4. Cc1cccnc1-c1nc2cc(Nc3cc(C(F)(F)F)cc(N4C[C@@H]5C[C@H]4CN5C)n3)ncc2s1
5. Cc1cccnc1-c1nc2cc(Nc3ccc(C4CCOCC4)c(N4C[C@@H]5C[C@H]4CN5C)n3)ncc2s1
6. CC(C)(O)c1cccc(-c2nc3cc(Nc4cc(C5CCOCC5)nc(N5C[C@@H]6C[C@H]5CN6)n4)ncc3s2)c1
7. CN1C[C@@H]2C[C@H]1CN2c1cncc(Nc2cc3nc(-c4cccc(S(=O)(=O)N(C)C)c4)sc3cn2)n1

**A:**
< 100 nM
< 100 nM
< 100 nM
< 100 nM
< 100 nM
< 100 nM
< 100 nM

###

- testSystem: HPK1 (Homo sapiens, UniProt Q92918)
- assayText: HPK1 Biochemical Assay (ADP-Glo luminescence; low ATP 10 μM or high ATP 200 μM)
- measurementConditions: 2 nM HPK1, 10 μM ATP; read-out: Biochemical Potency (low ATP)
pIC50: −log10 of the molar value.
observationType: pIC50

Examples from the recorded data:
smilesrepresentation=Cc1cccnc1-c1nc2cc(Nc3ccc(F)c(CN4CCCC4)n3)ncc2s1 testsystem="HPK1 (Homo sapiens, UniProt Q92918)" observationtype=pIC50 assayresult="> 7.00"
smilesrepresentation=Cc1cccnc1-c1nc2cc(Nc3cccc(N4CC5CCC(C4)N5C)n3)ncc2s1 testsystem="HPK1 (Homo sapiens, UniProt Q92918)" observationtype=pIC50 assayresult="> 7.00"
smilesrepresentation=CN(C)Cc1nc(Nc2cc3nc(-c4c(F)cccc4Cl)sc3cn2)ccc1N1CCOCC1 testsystem="HPK1 (Homo sapiens, UniProt Q92918)" observationtype=pIC50 assayresult="> 7.00"
smilesrepresentation=CN1C[C@@H]2C[C@H]1CN2c1cncc(Nc2cc3nc(-c4ncco4)sc3cn2)n1 testsystem="HPK1 (Homo sapiens, UniProt Q92918)" observationtype=pIC50 assayresult="> 7.00"

Parameter requested: pIC50. Apply to each item below.
1. Cc1cc(Nc2cc3nc(-c4cc5n(n4)CC(=O)N(C(C)C)CC5)sc3cn2)nc(O[C@H]2CCNC2)c1
2. CN1C[C@@H]2C[C@H]1CN2c1cncc(Nc2cc3nc(-c4cccc(NS(C)(=O)=O)c4)sc3cn2)n1

**A:**
1: 6.00 to 7.00; 2: > 7.00

Parameter requested: pIC50. Apply to each item below.
1. CN(Cc1nc(Nc2cc3nc(-c4c(F)cccc4F)sc3cn2)ccc1N1CCOCC1)S(C)(=O)=O
2. C[C@H]1COCCN1c1nc2cc(Nc3ccc(C4CCOCC4)c(CN4CCCC4)n3)ncc2s1

**A:**
["5.30 to 6.00", "> 7.00"]

###

- testSystem: HPK1 (Homo sapiens)
- assayText: HPK1 Biochemical Assay (ADP-Glo luminescence; low ATP 10 μM or high ATP 200 μM)
- measurementConditions: HPK1 ADP-Glo assay, low ATP (10 μM ATP, 2 nM HPK1); read-out: Biochemical Potency (low ATP)
pIC50: −log10 of the molar value.
observationType: pIC50

Examples from the recorded data:
smilesrepresentation=Cc1cccnc1-c1nc2cc(Nc3ccc4c(n3)CN(C)CC4)ncc2s1 observationtype=pIC50 assayresult="> 7.00"
smilesrepresentation=CN1C[C@@H]2C[C@H]1CN2c1nccc(Nc2cc3nc(N4CCc5cccnc5C4)sc3cn2)n1 observationtype=pIC50 assayresult="6.00 to 7.00"

# evaluate next
**Q:** Find the measured pIC50 of `CN1C[C@@H]2C[C@H]1CN2c1cncc(Nc2cc3nc(-c4cccc(NS(C)(=O)=O)c4)sc3cn2)n1` and report it.
**A:** > 7.00

###

- testSystem: HPK1 (Homo sapiens, UniProt Q92918)
- assayText: HPK1 Biochemical Assay (ADP-Glo luminescence; low ATP 10 μM or high ATP 200 μM)
- measurementConditions: 2 nM HPK1, 10 μM ATP; read-out: Biochemical Potency (low ATP)
Give IC50 for every item shown.

compound=Cc1ccncc1-c1nc2cc(Nc3cccc(N4C[C@@H]5C[C@H]4CN5C)n3)ncc2s1 assayresult="< 100 nM"
compound=Cc1ccnn1-c1nc2cc(Nc3ccc(N4CCOCC4)c(C(C)(C)N)n3)ncc2s1 assayresult="< 100 nM"
compound=CN1C[C@@H]2C[C@H]1CN2c1cccc(Nc2cc3nc(-c4cccc(C(N)=O)c4)sc3cn2)n1 assayresult="< 100 nM"
compound=CN1C[C@@H]2C[C@H]1CN2c1nccc(Nc2cc3nc(-c4ccnc(C(C)(C)O)c4)sc3cn2)n1 assayresult="< 100 nM"
compound=Cc1cccnc1-c1nc2cc(Nc3ccc(Cl)c(CN4CCCC4)n3)ncc2s1 assayresult="< 100 nM"
compound=CN(C)C(=O)c1cccc(-c2nc3cc(Nc4nccc(N5C[C@@H]6C[C@H]5CN6C)n4)ncc3s2)c1 assayresult="100 to 1000 nM"
compound=Cc1ccc(Nc2cc3nc(-c4cncnc4)sc3cn2)nc1CN1CCCC1 assayresult="100 to 1000 nM"
compound="Cc1cccnc1-c1nc2cc(Nc3cccc(N4CC5CCC4CN5C)n3)ncc2s1 (stereo not shown)" assayresult="< 100 nM"
compound=Cc1cccnc1-c1nc2cc(Nc3cncc(N4C[C@@H]5C[C@H]4CN5C)n3)ncc2s1 assayresult="< 100 nM"
compound=CN(C)C(=O)c1cccc(-c2nc3cc(Nc4cccc(N5C[C@@H]6C[C@H]5CN6)n4)ncc3s2)c1 assayresult="< 100 nM"

Parameter requested: IC50. Apply to each item below.
1. Cc1cccnc1-c1nc2cc(Nc3ccnc(N4C[C@@H]5C[C@H]4CN5)n3)ncc2s1
2. Cc1cc(Nc2cc3nc(-c4ccncc4)sc3cn2)nc(O[C@H]2CCNC2)c1
3. Cc1cc(Nc2cc3nc(-c4ccc(C#N)cc4)sc3cn2)nc(O[C@H]2CCNC2)c1
4. Cc1cccnc1-c1nc2cc(Nc3cccc(N4CCNC5CC54)n3)ncc2s1 (stereo not shown)
5. c1cc(C2CCOCC2)c(CN2CCCC2)nc1Nc1cc2nc(N3C[C@H]4C[C@@H]3CO4)sc2cn1
6. Cc1ccc(Nc2cc3nc(-c4ccnnc4)sc3cn2)nc1CN1CCCC1

**A:**
["< 100 nM", "< 100 nM", "< 100 nM", "< 100 nM", "100 to 1000 nM", "< 100 nM"]
